Biological target: recombinant human mPGES-1 (Homo sapiens)
Sequence (O14684 whole entry): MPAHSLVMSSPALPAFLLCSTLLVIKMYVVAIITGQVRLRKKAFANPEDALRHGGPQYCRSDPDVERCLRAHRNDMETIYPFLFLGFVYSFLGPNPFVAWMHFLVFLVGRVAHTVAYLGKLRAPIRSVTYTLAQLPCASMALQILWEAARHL
Experiment: Assay A: mPGES-1 enzyme assay (HTRF detection of PGE2)
Type: biochemical
Conditions: biological assay A (compounds 1-41, 54, 55, 62, 73); PGE2 formation from PGH2, HTRF; read-out: mPGES-1 inhibitory effect IC50
Parameter: pIC50. Scope: all listed entries.
The read-out pIC50 is expressed as -log10 of concentration in moles per litre.

Field: example entries. Status: answers known.
> print(dat)
                                   compound  measurement
1  CC(C)(C)C(=O)NCc1ccc(Cl)c(C(=O)Nc2ccc(OCC(F)F)c(C(=O)NCC3CC3(C)C)c2)c1 (stereo not shown)         8.40
2  COc1ccc(NC(=O)c2cc(CNC(=O)C(C)(N)C(F)(F)F)ccc2Cl)cc1C(=O)Nc1ccc(Br)cc1 (stereo not shown)         8.70
3  CC(C)(C)C(=O)NCc1ccc(Cl)c(C(=O)Nc2ccc(OCC(F)(F)F)c(C(=O)NCC3CC3)c2)c1         8.52

Prompt: Quick one: give measured pIC50 for `COc1ccc(NC(=O)c2cc(CNC(=O)C3(C(F)(F)F)CCCC3)ccc2Cl)cc1C(=O)Nc1ccc(Br)cc1`
Completion: 8.70

---

Parameter: IC50. Scope: all listed entries.
Biological target: recombinant human mPGES-1 (Homo sapiens)
Assay: Assay A: mPGES-1 enzyme assay (HTRF detection of PGE2)
Assay type: biochemical
Conditions: biological assay A (compounds 1-41, 54, 55, 62, 73); PGE2 formation from PGH2, HTRF; read-out: mPGES-1 inhibitory effect IC50

Field: example entries. Status: answers known.
> print(dat)
                              line.notation  measurement
1  CC(C)(C)C(=O)NCc1ccc(Cl)c(C(=O)Nc2ccc(Cl)c(C(=O)NC3CC3)c2)c1     ~3000 nM
2  COc1ccc(NC(=O)c2cc(CNC(=O)C(C)(C)C)ccc2Cl)cc1C(=O)NC1CC1      ~500 nM

API: the following record is the query input.
Prompt: Quick one: give measured IC50 for `O=C(NCc1ccc(Cl)c(C(=O)Nc2ccc(Cl)c(C(=O)NC3CC3)c2)c1)c1ccc(Cl)s1`
Completion: ~900 nM
